What bioavailability was measured for each of the following?
# test.method.notes: Bioavailability in dog at 10 mg/kg
# Assay type: ADME, organism-based, Canis lupus familiaris
# conditions.used: in vivo
Numbers only, in %.

Cc1ncoc1-c1ccc(CC(=O)N[C@H](C)c2ccc(OCC(F)(F)F)cn2)cc1 50

Shifting focus to the compound that follows.
Entry Cc1nccnc1-c1ccc(CC(=O)N[C@H](C)c2ccc(OCC(F)(F)F)cn2)cc1 ; bioavailability = 23

---

# test.method.notes: Systemic clearance in rat at 10 mg/kg
# Type: ADME, organism-based
# Parameters: dose 10 mg/kg
# conditions.used: in vivo
measured.property: clearance (mL/min/kg)
Answers are plain numbers, in mL/min/kg.

Cc1ncoc1-c1ccc(CC(=O)N[C@H](C)c2ccc(OCC(F)(F)F)cn2)cc1 35

clearance in this record for Cc1nccnc1-c1ccc(CC(=O)N[C@H](C)c2ccc(OCC(F)(F)F)cn2)cc1 : 30.3
